TARGET_ENTITY: SARS-CoV-2 M^pro/3CL^pro (Severe acute respiratory syndrome coronavirus 2, UniProt P0DTD1)
EXPERIMENT_NOTES: biochemical
Give IC50 for every item shown.
Answer format: numeric, nM implied, no suffix.

Recorded result, CC(C)C[C@H](NC(=O)c1cc2c(F)ccc(F)c2[nH]1)C(=O)N[C@@H](C[C@@H]1CCNC1=O)C(=O)c1nc2cc(F)ccc2s1 [Compound 44] , IC50: 120

Recorded result, CC(C)C[C@H](NC(=O)c1cc2c(F)cc(F)cc2[nH]1)C(=O)N[C@@H](C[C@@H]1CCNC1=O)C(=O)c1nc2cc(F)ccc2s1 [Compound 54] , IC50: 540

Recorded result, COc1cccc2[nH]c(C(=O)N[C@@H](CC(C)C)C(=S)N[C@@H](C[C@@H]3CCNC3=O)C(=O)c3nc4ccccc4s3)cc12 [Compound 60] , IC50: 990

Recorded result, COc1ccc(F)c2[nH]c(C(=O)N[C@@H](CC(C)C)C(=O)N[C@@H](C[C@@H]3CCNC3=O)C(=O)c3nc4c(F)cccc4s3)cc12 [Compound 3] , IC50: 37

Recorded result, COc1ccc(F)c2[nH]c(C(=O)N[C@@H](CC(C)C)C(=S)N[C@@H](C[C@@H]3CCNC3=O)C(=O)c3nc4c(F)cccc4s3)cc12 [Compound 4] , IC50: 370

====

EXPERIMENT_NOTES: in vivo
TEST_CONDITIONS: female, Jcl:ICR (ICR), mouse, iv, 2 mg/kg, mice, i.v. 2.0 mg/kg, 240 min
Give half-life for every item shown.

Recorded result, CC(C)(C)[C@H](NC(=O)C(F)(F)F)C(=O)N1C[C@H]2[C@@H]([C@H]1C(=O)N[C@H](C#N)C[C@@H]1CCNC1=O)C2(C)C [PF-07321332 (1), Nirmatrelvir, reference compound] , half-life: < 23 min

Recorded result, CC(C)C[C@H](NC(=O)c1cc2c(F)ccc(F)c2[nH]1)C(=O)N[C@@H](C[C@@H]1CCNC1=O)C(=O)c1nc2cc(F)ccc2s1 , half-life: ~30 min

Recorded result, COc1cccc2[nH]c(C(=O)N[C@@H](CC(C)C)C(=S)N[C@@H](C[C@@H]3CCNC3=O)C(=O)c3nc4ccccc4s3)cc12 , half-life: 50 to 60 min

====

Give IC50 fold change to 5h (in parentheses) for every item shown.
TARGET_ENTITY: SARS-CoV-2 M^pro/3CL^pro (Severe acute respiratory syndrome coronavirus 2)
EXPERIMENT_NOTES: biochemical
TEST_CONDITIONS: Table 1
The answer should be written as a number, with no unit following it.

Recorded result, CC(C)C[C@H](NC(=O)c1cc2c(F)ccc(F)c2[nH]1)C(=O)N[C@@H](C[C@@H]1CCNC1=O)C(=O)c1nc2cc(F)ccc2s1 , IC50 fold change to 5h (in parentheses): 0.34

Recorded result, COc1ccc(F)c2[nH]c(C(=O)N[C@@H](CC(C)C)C(=O)N[C@@H](C[C@@H]3CCNC3=O)C(=O)c3nc4c(F)cccc4s3)cc12 , IC50 fold change to 5h (in parentheses): 0.10

Recorded result, COc1cccc2[nH]c(C(=O)N[C@@H](CC(C)C)C(=S)N[C@@H](C[C@@H]3CCNC3=O)C(=O)c3nc4ccccc4s3)cc12 , IC50 fold change to 5h (in parentheses): 2.8

Recorded result, COc1ccc(F)c2[nH]c(C(=O)N[C@@H](CC(C)C)C(=S)N[C@@H](C[C@@H]3CCNC3=O)C(=O)c3nc4c(F)cccc4s3)cc12 , IC50 fold change to 5h (in parentheses): 1.0

Recorded result, CC(C)C[C@H](NC(=O)c1cc2c(F)cc(F)cc2[nH]1)C(=O)N[C@@H](C[C@@H]1CCNC1=O)C(=O)c1nc2cc(F)ccc2s1 , IC50 fold change to 5h (in parentheses): 1.5
